FYI, the data here is from PubChem BioAssay (NCI).

Test system: NCI-H522 lung
Test: NCI tumour cell line growth inhibition, 48 h; in the data active means GI50 below about 0.43 µM; inactive means the rest
Assign a class; possible classes are Y (active), N (inactive)

Query string: Write down the call the test reported for this compound. Item: CCC(=C/[C@H](C)C/C=C/C(C)=C/[C@@H](C)C(=O)[C@@H](C)[C@H](O)[C@@H](C)CC)/C=C/[C@H]1OC(=O)C=C[C@H]1C
Result string: Y

Query string: Write down the call the test reported for this compound. Item: COc1cc(-c2cc(-c3nc4ccc(Cl)cc4[nH]3)[nH]n2)cc(OC)c1OC
Result string: N

Query string: Write down the call the test reported for this compound. Item: CCOC(=O)c1c(C(F)(F)F)n([O-])c2ccc(OC)cc2[n+]1=O
Result string: N

Query string: Write down the call the test reported for this compound. Item: CC(=O)N=c1ccc2nc3c(cc(N)c4ccccc43)oc-2c1
Result string: N

Query string: Write down the call the test reported for this compound. Item: C=C1C(=O)O[C@H]2[C@H]1CC/C(COC(=O)NCc1c[nH]c3ccc(Cl)cc13)=C\CC[C@@]1(C)O[C@@H]21
Result string: N

Query string: Write down the call the test reported for this compound. Item: CCCN(CCC)c1ccc(/C=N/NC(=O)c2cccnc2)c(Cl)c1
Result string: N

Query string: Write down the call the test reported for this compound. Item: COC1=CC(c2ccc[nH]2)=N/C1=C\c1ccc[nH]1
Result string: Y

Query string: Write down the call the test reported for this compound. Item: COc1ccc2c(c1)CCC1C2CC[C@]2(C)/C(=N/OC(=O)Cc3ccccc3)CCC12 (stereo not given in full)
Result string: N

Query string: Write down the call the test reported for this compound. Item: NS(=O)(=O)c1ccc(N2N=C3c4ccccc4CC3C2c2ccc(Cl)cc2)cc1 (stereo not given)
Result string: N

Query string: Write down the call the test reported for this compound. Item: COc1ccc(NC(=O)c2sc3nc(C)c(C(O)c4ccccc4)cc3c2N)cc1 (stereo not given)
Result string: N

Query string: Write down the call the test reported for this compound. Item: Cn1cc(C2=C(c3cn(CCN)c4ccccc34)C(=O)NC2=O)c2ccccc21
Result string: N

Query string: Write down the call the test reported for this compound. Item: N.N.NCCCCN.O=C([O-])C1(C(=O)[O-])CCC1.O=C([O-])C1(C(=O)[O-])CCC1.[Pt+4].[Pt+4]
Result string: N

Query string: Write down the call the test reported for this compound. Item: COc1ccc(-c2ccc(C3CC(c4ccc(Cl)cc4)=NN3)o2)c([N+](=O)[O-])c1 (stereo not given)
Result string: N

Query string: Write down the call the test reported for this compound. Item: COc1cc(C(=O)c2cc3c(cc2C)OCO3)cc(OC)c1OC
Result string: Y

Query string: Write down the call the test reported for this compound. Item: CCCCCCCC[N+](C)(CCCCCCCC)CCCCCCCC
Result string: Y
